test system: Mus musculus; assay: In vivo inhibition of p185 phosphotyrosine in nu/nu nude mice bearing Fisher rat embryo cells transfected with human erbB-2; format: functional; set-up: concentration or dose not given beside the values
Each item that follows carries a reported Inhibition.
The figure you give is taken to be in %; do not add the unit.

Observe how each entry below is paired with its result.
Molecule	Number
CNC1=C2C[C@@H](C)C[C@H](OC)[C@H](O)[C@@H](C)/C=C(\C)[C@H](OC(N)=O)[C@@H](OC)/C=C\C=C(/C)C(=O)NC(=CC1=O)C2=O	18
CO[C@H]1C[C@H](C)CC2=C(N)C(=O)C=C(NC(=O)/C(C)=C/CC[C@H](OC)[C@@H](OC(N)=O)/C(C)=C/[C@H](C)[C@H]1O)C2=O	45
C=CCNC1=C2C[C@@H](C)C[C@H](OC)[C@@H](F)[C@@H](C)/C=C(\C)[C@H](OC(N)=O)[C@@H](OC)/C=C\C=C(/C)C(=O)NC(=CC1=O)C2=O	50
C=CCNC1=C2C[C@@H](C)C[C@H](OC)[C@H](O)[C@@H](C)/C=C(\C)[C@H](OC(N)=O)[C@@H](OC)/C=C\C=C(/C)C(=O)NC(=CC1=O)C2=O [TANESPIMYCIN]	56
COc1ccccc1C(=O)CN1C(=O)/C(C)=C/C=C\[C@H](OC)[C@@H](OC(N)=O)/C(C)=C/[C@H](C)[C@@H](O)[C@@H](OC)C[C@H](C)CC2=C(N)C(=O)C=C1C2=O	50
CO[C@H]1/C=C\C=C(/C)C(=O)NC2=CC(=O)C(N3CCC3)=C(C[C@@H](C)C[C@H](OC)[C@H](O)[C@@H](C)/C=C(\C)[C@@H]1OC(N)=O)C2=O	61

Would you kindly look at the next entry?
Inhibition in this record for CO[C@H]1/C=C\C=C(/C)C(=O)NC2=CC(=O)C(NC(C)C)=C(C[C@@H](C)C[C@H](OC)[C@H](O)[C@@H](C)/C=C(\C)[C@@H]1OC(N)=O)C2=O : 87
